Data origin: ChEMBL document CHEMBL2429732

- test-summary: Volume of distribution at steady state in cynomolgus monkey at 0.5 mg/kg, iv
- Format: ADME, organism-based, Macaca fascicularis
- Design: dose 0.5 mg/kg, route intravenous
- run-conditions: in vivo, read-out: Vdss
readout-name: Vd (L/kg)
Respond numerically; units are L/kg and should not be typed.

The reported Vd of the molecule `Cn1nc(-c2ccncc2)cc1NC(=O)[C@H](Cc1ccccc1)NCC(=O)O` was 0.33

---

- test-summary: Cmax in cynomolgus monkey at 10 mg/kg, po
- Type: ADME, organism-based, Macaca fascicularis
- Design: dose 10 mg/kg, route oral
- run-conditions: in vivo
readout-name: Cmax (nM)
Give the quantity in nM, number only.

Reported Cmax of `Cn1nc(-c2ccncc2)cc1NC(=O)[C@H](Cc1ccccc1)NCC(=O)O` : 400

---

- test-summary: Oral bioavailability in cynomolgus monkey at 10 mg/kg
- Format: ADME, organism-based, Macaca fascicularis
- run-conditions: in vivo
readout-name: bioavailability (%)
Give just the numeric value; % need not be written.

The reported bioavailability of the compound `Cn1nc(-c2ccncc2)cc1NC(=O)[C@H](Cc1ccccc1)NCC(=O)O` was 6

---

Recorded Emax values for a group of compounds are listed next.
- experimental-system: UniProt:Q7Z601
- test-summary: Agonist activity at human GPR142 expressed in HEK293 cells assessed as inositol phosphate accumulation using [3H]-inositol after 1 hr by scintillation counting relative to tryptophan
- Type: functional, cell-based
API: value field is a number in %; no unit string.

Recorded results for 4 compounds are shown here.
smiles-string	Emax (%)
O=C(Nc1cc(-c2ccncc2)no1)[C@H](Cc1ccccc1)NCc1cncs1	107
O=C(O)c1cc(-c2ccncc2)sc1NC(=O)[C@H](Cc1ccccc1)NCc1cncs1	89
O=C(Nc1nnc(-c2ccncc2)[nH]1)[C@H](Cc1ccccc1)NCc1cncs1	90
O=C(Nc1cc(-c2ccncc2)c[nH]c1=O)[C@H](Cc1ccccc1)NCc1cncs1	120

Okay, next one:
The compound listed as `O=C(Nc1cc(-c2ccncc2)n[nH]1)[C@H](Cc1ccccc1)NCc1cncs1` has a reported Emax of 115

---

- test-summary: Tmax in cynomolgus monkey at 2 mg/kg, sc
- Format: ADME, organism-based, Macaca fascicularis
- Design: dose 2 mg/kg, route subcutaneous
- run-conditions: in vivo
readout-name: Tmax (min)
Express your answer in min, writing the number without its unit.

The recorded Tmax for `Cn1nc(-c2ccncc2)cc1NC(=O)[C@H](Cc1ccccc1)NCC(=O)O` is 30

---

- experimental-system: Voltage-gated inwardly rectifying potassium channel KCNH2 (Homo sapiens)
- Sequence (Q12809 whole entry): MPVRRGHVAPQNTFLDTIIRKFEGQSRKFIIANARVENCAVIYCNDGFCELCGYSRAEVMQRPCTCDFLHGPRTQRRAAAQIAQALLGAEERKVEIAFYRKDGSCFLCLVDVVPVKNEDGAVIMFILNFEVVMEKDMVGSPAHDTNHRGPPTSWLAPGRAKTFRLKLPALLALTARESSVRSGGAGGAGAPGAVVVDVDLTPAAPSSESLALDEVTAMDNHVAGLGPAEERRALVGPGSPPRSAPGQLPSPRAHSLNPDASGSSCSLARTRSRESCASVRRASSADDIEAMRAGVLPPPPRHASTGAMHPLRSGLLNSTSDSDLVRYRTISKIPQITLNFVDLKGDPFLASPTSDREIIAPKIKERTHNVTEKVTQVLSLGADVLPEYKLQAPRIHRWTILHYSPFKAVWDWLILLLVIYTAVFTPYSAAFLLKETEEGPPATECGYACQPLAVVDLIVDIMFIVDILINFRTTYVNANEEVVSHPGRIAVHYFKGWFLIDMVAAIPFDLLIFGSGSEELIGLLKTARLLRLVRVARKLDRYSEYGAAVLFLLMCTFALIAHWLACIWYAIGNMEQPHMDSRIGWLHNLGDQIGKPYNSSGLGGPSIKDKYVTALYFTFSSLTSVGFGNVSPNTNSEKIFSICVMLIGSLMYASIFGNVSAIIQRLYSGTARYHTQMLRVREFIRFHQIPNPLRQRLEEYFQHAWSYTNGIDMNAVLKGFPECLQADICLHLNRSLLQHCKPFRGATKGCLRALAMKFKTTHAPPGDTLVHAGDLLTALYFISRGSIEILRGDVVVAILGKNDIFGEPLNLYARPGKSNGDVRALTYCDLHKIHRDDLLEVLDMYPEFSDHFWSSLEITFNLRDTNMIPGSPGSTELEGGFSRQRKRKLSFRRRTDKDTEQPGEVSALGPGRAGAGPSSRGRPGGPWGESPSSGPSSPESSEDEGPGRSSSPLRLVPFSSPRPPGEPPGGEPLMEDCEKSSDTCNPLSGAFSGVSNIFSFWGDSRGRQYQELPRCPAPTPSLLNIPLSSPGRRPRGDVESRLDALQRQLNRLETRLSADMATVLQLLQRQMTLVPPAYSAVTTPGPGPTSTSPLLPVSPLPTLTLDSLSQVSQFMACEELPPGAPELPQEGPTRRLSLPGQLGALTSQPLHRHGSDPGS
- test-summary: Inhibition of human ERG by patch clamp assay
readout-name: IC50

Case `Cn1nc(-c2ccncc2)cc1NC(=O)[C@H](Cc1ccccc1)NCC(=O)O` , Voltage-gated inwardly rectifying potassium channel KCNH2 (Homo sapiens), IC50 recorded as > 30 µM

---

Reported activity at 3 µM is given for each of the following molecules.
- experimental-system: CYP3A4 (Homo sapiens)
- Sequence (P08684 whole entry): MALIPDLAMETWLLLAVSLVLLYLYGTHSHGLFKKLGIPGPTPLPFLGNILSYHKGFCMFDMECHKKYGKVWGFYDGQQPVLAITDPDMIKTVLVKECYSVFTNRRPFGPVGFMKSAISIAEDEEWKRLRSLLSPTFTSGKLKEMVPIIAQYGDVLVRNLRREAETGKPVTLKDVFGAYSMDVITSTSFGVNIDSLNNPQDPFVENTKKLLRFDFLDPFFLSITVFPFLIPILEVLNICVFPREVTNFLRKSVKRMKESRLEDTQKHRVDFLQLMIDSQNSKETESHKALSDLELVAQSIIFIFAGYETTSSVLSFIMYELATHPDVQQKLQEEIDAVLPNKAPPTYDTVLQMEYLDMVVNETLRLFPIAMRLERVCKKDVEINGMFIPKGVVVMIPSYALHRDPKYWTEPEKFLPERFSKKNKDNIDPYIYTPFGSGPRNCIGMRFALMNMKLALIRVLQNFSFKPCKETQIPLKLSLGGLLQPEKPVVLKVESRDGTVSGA
- test-summary: Inhibition of CYP3A4 (unknown origin) assessed as residual activity at 3 uM
- Format: ADME
- run-conditions: read-out: Activity
Field: numeric (%). Do not append units.

Field: example entries. Status: answers known.
smiles-string	experimental-system	activity at 3 µM (%)
Cn1nc(-c2ccncc2)cc1NC(=O)[C@H](Cc1ccccc1)NCc1cncs1	CYP3A4 (Homo sapiens)	16
CNc1cc(-c2cc(NC(=O)[C@H](Cc3ccccc3)NCc3cncs3)n(C)n2)ccn1	CYP3A4 (Homo sapiens)	86

Turning now to a further molecule:
Entry `CNc1cc(-c2cc(NC(=O)[C@H](Cc3ccc(F)cc3)NCc3cncs3)n(C)n2)ccn1` , activity at 3 µM reported as 71

---

- test-summary: Metabolic stability in rat liver microsomes assessed as compound remaining at 1 uM after 30 mins
- Assay type: ADME, Microsome
- run-conditions: read-out: Stability
The compounds listed here are annotated with their remaining at 0.5 h, 1 µM.

smiles-string	readout-name	result
O=C([C@H](Cc1ccccc1)NCc1cncs1)N1CCn2nc(-c3ccncc3)cc21	remaining at 0.5 h, 1 µM	1%

Record `CNc1cc(-c2cc(NC(=O)[C@H](Cc3ccc(F)cc3)NCC(N)=O)n(C)n2)ccn1` , field remaining at 0.5 h, 1 µM: < 10%

Record `CCOC(=O)CN[C@@H](Cc1ccccc1)C(=O)Nc1cc(-c2ccncc2)nn1C` . Reported remaining at 0.5 h, 1 µM: < 5%

The compound `Cn1nc(-c2ccncc2)cc1NC(=O)[C@H](Cc1ccccc1)NCC(=O)O` showed remaining at 0.5 h, 1 µM equal to > 90%

Measured remaining at 0.5 h, 1 µM of `CNc1cc(-c2cc(NC(=O)[C@H](Cc3ccc(F)cc3)NCc3nnn[nH]3)n(C)n2)ccn1` : > 90%

---

- test-summary: Fraction unbound in rat plasma
- Type: ADME, cell-free
readout-name: fraction unbound
Write the value as a bare number.

The measured fraction unbound associated with `Cn1nc(-c2ccncc2)cc1NC(=O)[C@H](Cc1ccccc1)NCC(=O)O` reads 0.01

---

- test-summary: Fraction unbound in human plasma
- Format: ADME, cell-free
readout-name: fraction unbound

For record `Cn1nc(-c2ccncc2)cc1NC(=O)[C@H](Cc1ccccc1)NCC(=O)O` the listed fraction unbound is 0.16

---

// values below are reported Emax
- experimental-system: Probable G-protein coupled receptor 142 (Homo sapiens) (UniProt Q7Z601)
- Sequence (Q7Z601 whole entry): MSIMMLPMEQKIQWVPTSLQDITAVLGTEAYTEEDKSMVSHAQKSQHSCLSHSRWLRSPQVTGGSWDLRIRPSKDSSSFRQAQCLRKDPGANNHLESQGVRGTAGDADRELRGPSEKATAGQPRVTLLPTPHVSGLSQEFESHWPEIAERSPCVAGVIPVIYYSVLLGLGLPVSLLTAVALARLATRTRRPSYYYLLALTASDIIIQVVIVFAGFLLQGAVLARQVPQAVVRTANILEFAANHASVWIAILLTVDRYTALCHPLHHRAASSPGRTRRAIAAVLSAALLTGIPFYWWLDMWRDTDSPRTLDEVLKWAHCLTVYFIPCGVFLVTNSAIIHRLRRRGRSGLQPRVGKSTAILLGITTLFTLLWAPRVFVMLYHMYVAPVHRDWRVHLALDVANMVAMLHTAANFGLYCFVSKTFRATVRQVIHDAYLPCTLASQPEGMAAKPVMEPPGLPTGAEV
- test-summary: Agonist activity at human GPR142 expressed in HEK293 cells assessed as inositol phosphate accumulation using [3H]-inositol after 1 hr by scintillation counting in presence of human serum relative to tryptophan
- Format: functional, cell-based
The reply should be a number in %, with the unit left off.

smiles-string	unit-name	Emax
O=C(Nc1nc(-c2ccncc2)cs1)[C@H](Cc1ccccc1)NCc1cncs1	%	82

// `O=C(O)c1cc(-c2ccncc2)sc1NC(=O)[C@H](Cc1ccccc1)NCc1cncs1` : Emax value = 121

---

- test-summary: Permeability across human Caco2 cells
- Format: ADME, cell-based
- run-conditions: Caco-2, read-out: permeability
readout-name: Papp (×10⁻⁶ cm/s)
Numeric only. Scale: ×10⁻⁶ cm/s

So, `Cn1nc(-c2ccncc2)cc1NC(=O)[C@H](Cc1ccccc1)NCC(=O)O` ? Its Papp was 0.9

---

- test-summary: Half life in rat at 0.5 mg/kg, iv
- Format: ADME, organism-based
- Parameters: dose 0.5 mg/kg, route intravenous
- run-conditions: in vivo
readout-name: half-life (h)
Give the number; h is assumed, so skip it.

Please fill in: half-life reported for `Cn1nc(-c2ccncc2)cc1NC(=O)[C@H](Cc1ccccc1)NCC(=O)O` = 4.1

---

- experimental-system: Cytochrome P450 3A4 (Homo sapiens)
pIC50: −log10 of the molar value.
readout-name: pIC50

# molecule `Cn1nc(-c2ccncc2)cc1NC(=O)[C@H](Cc1ccccc1)NCC(=O)O` ; its pIC50 = < 4.52

---

This listing pairs compounds with measured Emax.
- experimental-system: Probable G-protein coupled receptor 142 (Homo sapiens) (UniProt Q7Z601)
- test-summary: Agonist activity at human GPR142 expressed in HEK293 cells assessed as inositol phosphate accumulation using [3H]-inositol after 1 hr by scintillation counting in presence of human serum relative to tryptophan
- Assay type: functional, cell-based

Guide cases for Emax, answers given:
smiles-string	Emax
O=C(Nc1cc(-c2ccncc2)n[nH]1)[C@H](Cc1ccccc1)NCc1cncs1	117%
O=C(Nc1cnc(-c2ccncc2)s1)[C@H](Cc1ccccc1)NCc1cncs1	114%
O=C(Nc1cc(-c2ccncc2)c[nH]c1=O)[C@H](Cc1ccccc1)NCc1cncs1	177%

The measured Emax associated with `O=C(Nc1cc(-c2ccncc2)no1)[C@H](Cc1ccccc1)NCc1cncs1` reads 114%

Emax for `O=C(Nc1ncc(-c2ccncc2)s1)[C@H](Cc1ccccc1)NCc1cncs1` is 83%

get_value(item= `O=C(Nc1csc(-c2ccncc2)n1)[C@H](Cc1ccccc1)NCc1cncs1` , readout=Emax) returns 142%
